- Tested on: CCRF-CEM leukemia
- TEST_SUMMARY: NCI-60 one-dose screen, 48 h (100 = growth as untreated, 0 = no growth, -100 = all killed)
- APPLIED_CONDITIONS: 10 µM unless noted
The panel holds about 83,000 compounds, 20% with a hit somewhere; the sample as a whole holds those more often. Calls of active or inactive are those of the source. How the source made its calls: active means growth percent below 10; inactive means the rest.
ATTRIBUTE_MEASURED: growth

COMPOUND: CC(NC(N)=S)c1ccccc1 (stereo not given)
growth: 129% (inactive)
//
COMPOUND: O=c1[nH]c(SCc2ccccc2)nc2nc(Nc3ccc(NC(=S)Nc4ccccc4)cc3)nc(-c3ccc(O)cc3O)c12
growth: 94.5% (inactive)
//
COMPOUND: COc1ccc(C2CC(c3ccc(Nc4ccnc5cc(Cl)ccc45)cc3)=NN2C(C)=O)cc1 (stereo not given)
growth: 47.2% (inactive)
//
COMPOUND: CC(=O)OCC(=O)[C@@]1(O)CC[C@H]2[C@@H]3CCC4=CC(=O)CC[C@]4(C)[C@@]3(F)[C@@H](O)C[C@@]21C
growth: 71.7% (inactive)
//
COMPOUND: COc1cc(OC)c2c(c1Cl)O[C@]1(C2=O)C(OCc2ccccc2)=CC(=O)C[C@H]1C
growth: 10.4% (inactive)

Give growth for each of the items listed below.
1. CC(C)C[C@H](NC(=O)/C=C/Cn1ccc2ccccc2c1=O)B(O)O
2. COC(=O)C1=CCC(n2cnc3c(N)ncnc32)O1 (stereo not given)

12.2% (inactive)
98.8% (inactive)

* * *

- Test system: U251 CNS
- TEST_SUMMARY: NCI-60 one-dose screen, 48 h
- APPLIED_CONDITIONS: 10 µM unless noted
About 83,000 compounds went through this panel and 20% of them were active in at least one assay; those are over-represented in the sample as a whole. Active and inactive are the calls of the source. The calls were made as follows: active = growth percent below 10; inactive = the rest.
Pick from label 1 for active, label 0 for inactive when you respond.

Would you please look over these solved cases?
STRUCTURE_STRING: Oc1ccccc1/C=N/N1CCCCCC1
QUALITATIVE_LABEL: label 0

STRUCTURE_STRING: O=C(O)c1ccc(CNS(=O)(=O)c2ccc3ccccc3c2)cc1
QUALITATIVE_LABEL: label 0

STRUCTURE_STRING: CCOC(=O)CCN(c1c(Cl)ssc1=O)C(C)C
QUALITATIVE_LABEL: label 0

STRUCTURE_STRING: O=C(Nc1cccc(Cl)c1)Nc1cccc(Cl)c1
QUALITATIVE_LABEL: label 0

STRUCTURE_STRING: O=C(CNC(=O)c1cccc2ccccc12)Nc1ccccc1Cc1ccccc1
QUALITATIVE_LABEL: label 0

So what was the verdict on COc1ccc(/C=C2/SC(=Nc3c(C)nn(-c4ccccc4)c3N)NC2=O)cc1 in this test?
label 0

Another molecule to check: Cc1cc(=O)[nH]c(/C(=N/Nc2ccccc2)C(=O)c2ccc(Cl)cc2)n1
label 0

Another molecule to check: O=C1c2cccc3c([N+](=O)[O-])ccc(c23)C(=O)N1CCCCl
label 1

Another molecule to check: Oc1c(Cl)cc(Oc2cc(Cl)c(O)c(CN3CCOCC3)c2)cc1CN1CCOCC1
label 0

Another molecule to check: Cc1csc(C#Cc2cncc(O)c2)n1
label 0

Another molecule to check: O=C(Nc1ccccc1OC(=O)c1ccccc1)c1ccccc1
label 0

src = PubChem BioAssay (NCI)
